Taken from paper PMC3914206.

Target: panel of 442 kinases (Homo sapiens, UniProt Q86Z02)
Construct: purchased KINOMEscan
Sequence (Q86Z02 whole entry): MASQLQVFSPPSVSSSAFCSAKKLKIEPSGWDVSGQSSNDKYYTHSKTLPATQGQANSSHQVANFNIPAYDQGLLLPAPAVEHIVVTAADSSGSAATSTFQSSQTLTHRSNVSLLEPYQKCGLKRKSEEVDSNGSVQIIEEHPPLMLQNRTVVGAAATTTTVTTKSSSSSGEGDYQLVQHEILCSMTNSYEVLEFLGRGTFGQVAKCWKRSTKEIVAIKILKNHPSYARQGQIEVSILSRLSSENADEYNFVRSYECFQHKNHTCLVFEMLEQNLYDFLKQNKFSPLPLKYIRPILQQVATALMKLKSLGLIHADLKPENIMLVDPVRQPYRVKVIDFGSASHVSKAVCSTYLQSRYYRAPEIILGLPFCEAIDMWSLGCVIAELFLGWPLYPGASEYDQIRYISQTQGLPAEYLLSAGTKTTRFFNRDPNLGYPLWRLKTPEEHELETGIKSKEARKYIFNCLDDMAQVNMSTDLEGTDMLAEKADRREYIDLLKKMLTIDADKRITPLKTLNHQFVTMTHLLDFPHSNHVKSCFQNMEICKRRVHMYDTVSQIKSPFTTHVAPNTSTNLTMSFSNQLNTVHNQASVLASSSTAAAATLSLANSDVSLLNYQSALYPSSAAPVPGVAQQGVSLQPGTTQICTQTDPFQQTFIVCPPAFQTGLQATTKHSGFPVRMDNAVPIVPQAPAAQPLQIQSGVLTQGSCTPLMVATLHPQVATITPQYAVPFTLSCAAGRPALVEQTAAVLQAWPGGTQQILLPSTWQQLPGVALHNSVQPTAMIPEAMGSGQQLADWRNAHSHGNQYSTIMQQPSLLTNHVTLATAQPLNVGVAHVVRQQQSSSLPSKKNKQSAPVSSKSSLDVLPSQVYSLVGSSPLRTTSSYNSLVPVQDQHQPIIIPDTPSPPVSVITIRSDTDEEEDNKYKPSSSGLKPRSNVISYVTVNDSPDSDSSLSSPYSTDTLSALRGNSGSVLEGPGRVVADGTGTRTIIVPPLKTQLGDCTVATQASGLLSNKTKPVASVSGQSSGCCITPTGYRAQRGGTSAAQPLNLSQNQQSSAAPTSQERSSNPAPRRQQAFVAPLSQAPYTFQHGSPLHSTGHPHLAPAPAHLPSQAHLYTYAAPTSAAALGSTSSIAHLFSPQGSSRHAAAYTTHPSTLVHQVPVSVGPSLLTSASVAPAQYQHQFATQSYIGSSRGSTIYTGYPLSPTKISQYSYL
Format: binding
Conditions: Compound Concentration 10 µM
Entries and their KINOMEscan: HIPK1
The answer should be a number; do not append a unit.

Worked examples, 3 compounds total:
compound="CCOc1cc(C(=O)N2CCC(N3CCN(C)CC3)CC2)ccc1Nc1ncc2c(n1)N(C1CCCC1)c1ccccc1C(=O)N2C [Compound 26]" meas_value=100
compound="COc1cc(C(=O)N2CCC(N3CCN(C)CC3)CC2)ccc1Nc1ncc2c(n1)N(C1CCCC1)c1ccccc1C(=O)N2C [Compound 25]" meas_value=100
compound="COc1cc(C(=O)N2CCC(N3CCN(C)CC3)CC2)ccc1Nc1ncc2c(n1)N1CCc3cccc(c31)C(=O)N2C [Compound 24]" meas_value=52

API: the following record is the query input.
**Q:** Which value of KINOMEscan: HIPK1 has been reported for COc1cc(C(=O)N2CCC(N3CCN(C)CC3)CC2)ccc1Nc1ncc2c(n1)N(C)c1ccccc1C(=O)N2C [15 (LRRK2-IN-1)] in the records?
**A:** 100
